Provide the recorded pIC50 for the entries that follow.
TESTED_SYSTEM: Acetylcholinesterase (Rattus norvegicus, UniProt P37136)
Sequence (P37136 whole entry): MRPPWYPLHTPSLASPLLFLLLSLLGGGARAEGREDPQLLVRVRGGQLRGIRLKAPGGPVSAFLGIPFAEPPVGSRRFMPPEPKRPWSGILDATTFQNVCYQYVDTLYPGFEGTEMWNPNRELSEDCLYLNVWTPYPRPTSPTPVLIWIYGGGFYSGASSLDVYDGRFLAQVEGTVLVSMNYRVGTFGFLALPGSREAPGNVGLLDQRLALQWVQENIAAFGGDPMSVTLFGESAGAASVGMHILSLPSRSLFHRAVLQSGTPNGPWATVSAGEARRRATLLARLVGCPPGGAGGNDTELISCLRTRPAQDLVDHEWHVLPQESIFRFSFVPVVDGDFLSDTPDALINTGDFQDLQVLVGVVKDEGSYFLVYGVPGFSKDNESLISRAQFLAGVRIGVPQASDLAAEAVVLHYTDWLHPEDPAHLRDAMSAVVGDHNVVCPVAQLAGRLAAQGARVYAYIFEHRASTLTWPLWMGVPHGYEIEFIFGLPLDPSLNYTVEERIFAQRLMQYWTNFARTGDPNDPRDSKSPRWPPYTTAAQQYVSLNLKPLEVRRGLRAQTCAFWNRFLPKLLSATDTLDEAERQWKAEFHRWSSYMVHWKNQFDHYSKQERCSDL
Please note pIC50 is a logarithmic value: minus log10 of concentration in mol/L. Answer with that number alone.

Record request: pIC50 value, item `CC1=C[C@H]2Cc3[nH]c(=O)ccc3[C@]3(C1)NCCC[C@H]23`
4.71

Record request: pIC50 value, item `CC1=CC2Cc3[nH]c(=O)ccc3[C@@]3(C1)[C@@H]2CCCN3C(=O)CN(C)CCCCCCN(C)CC(=O)N1CCC[C@@H]2C3C=C(C)C[C@]21c1ccc(=O)[nH]c1C3`
7.12

Record request: pIC50 value, item `CC1=CC2Cc3[nH]c(=O)ccc3[C@@]3(C1)[C@@H]2CCCN3C(=O)CCN(C)CCCCCCCCCCCCN(C)CCC(=O)N1CCC[C@@H]2C3C=C(C)C[C@]21c1ccc(=O)[nH]c1C3`
7.60

Record request: pIC50 value, item `CC1=CC2Cc3[nH]c(=O)ccc3[C@@]3(C1)[C@@H]2CCCN3C(=O)CCN(C)CCCCCCCCN(C)CCC(=O)N1CCC[C@@H]2C3C=C(C)C[C@]21c1ccc(=O)[nH]c1C3`
7.73

Record request: pIC50 value, item `CC1=CC2Cc3[nH]c(=O)ccc3[C@@]3(C1)[C@@H]2CCCN3C(=O)CN(C)CCN(C)CC(=O)N1CCC[C@@H]2C3C=C(C)C[C@]21c1ccc(=O)[nH]c1C3`
5.99

Record request: pIC50 value, item `CC1=CC2Cc3[nH]c(=O)ccc3[C@@]3(C1)[C@@H]2CCCN3C(=O)CCN(C)CCCCCCCCCCN(C)CCC(=O)N1CCC[C@@H]2C3C=C(C)C[C@]21c1ccc(=O)[nH]c1C3`
8.31

Record request: pIC50 value, item `CC1=CC2Cc3[nH]c(=O)ccc3[C@@]3(C1)[C@@H]2CCCN3C(=O)CN(C)CCCCCCCCN(C)CC(=O)N1CCC[C@@H]2C3C=C(C)C[C@]21c1ccc(=O)[nH]c1C3`
7.29

Record request: pIC50 value, item `CC1=CC2Cc3[nH]c(=O)ccc3[C@@]3(C1)[C@@H]2CCCN3C(=O)CCN(C)CCCCCCN(C)CCC(=O)N1CCC[C@@H]2C3C=C(C)C[C@]21c1ccc(=O)[nH]c1C3`
7.44

Record request: pIC50 value, item `CC1=CC2Cc3[nH]c(=O)ccc3[C@@]3(C1)[C@@H]2CCCN3C(=O)CN(C)CCCN(C)CC(=O)N1CCC[C@@H]2C3C=C(C)C[C@]21c1ccc(=O)[nH]c1C3`
6.33
